# ASSAY_SYSTEM: full length SGK1 (Homo sapiens, UniProt O00141)
# Construct: 125 μM full length SGK1 (Life Technologies Part #PR7358A); purchased Life Technologies PR7358A
# Sequence (O00141 1-431): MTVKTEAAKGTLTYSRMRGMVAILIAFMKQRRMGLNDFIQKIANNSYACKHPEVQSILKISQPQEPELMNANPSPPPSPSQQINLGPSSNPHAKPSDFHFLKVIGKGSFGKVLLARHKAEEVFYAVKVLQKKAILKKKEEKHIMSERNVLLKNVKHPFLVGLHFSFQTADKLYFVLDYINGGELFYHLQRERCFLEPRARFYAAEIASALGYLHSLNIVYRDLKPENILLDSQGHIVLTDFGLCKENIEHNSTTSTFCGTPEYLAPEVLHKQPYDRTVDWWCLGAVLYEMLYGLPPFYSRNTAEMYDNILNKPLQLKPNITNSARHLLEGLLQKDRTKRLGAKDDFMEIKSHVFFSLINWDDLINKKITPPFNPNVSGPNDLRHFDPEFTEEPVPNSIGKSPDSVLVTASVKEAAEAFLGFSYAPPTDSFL
# METHOD: SGK1 inhibition Assay A (Caliper LabChip electrophoretic separation of fluorescent peptide substrate and phosphorylated product)
# Type: biochemical
# COND: Assay A; 20 μM ATP, 40 min incubation; read-out: SGK1 IC50
Structures can show the parent of a compound that is named as a salt.
ENDPOINT: log10 IC50 (log10 of the value in nM)

{"COMPOUND": "CC(C)c1cc(C(=O)N[C@@H]2CCCN(c3cc(C4=CCN(S(C)(=O)=O)C4)n4ncnc(N)c34)C2)on1 [Example 119, TFA]", "log10 IC50": 1.26}
{"COMPOUND": "Nc1ncnn2c(-c3ccnc(C(F)F)c3)cc(N3CCC[C@@H](NC(=O)c4cc5ccccc5s4)C3)c12", "log10 IC50": 0.60}
{"COMPOUND": "Cc1ccc(C(=O)N[C@@H]2CCCN(c3cc(-c4ccncc4)n4ncnc(N)c34)C2)s1", "log10 IC50": 0.30}
{"COMPOUND": "N#Cc1ccc(-c2cc(N3CCC[C@@H](NC(=O)c4n[nH]c5ccccc45)C3)c3c(N)ncnn23)cn1", "log10 IC50": 2.02}
{"COMPOUND": "CS(=O)(=O)c1ccc(-c2cc(N3CCC[C@@H](NC(=O)c4ccccc4Cl)C3)c3c(N)ncnn23)cc1", "log10 IC50": 2.44}
{"COMPOUND": "CC(=O)N1CC=C(c2cc(N3CCC[C@@H](NC(=O)c4ccc5c(c4)OCO5)C3)c3c(N)ncnn23)C1", "log10 IC50": 1.81}
{"COMPOUND": "COc1cc(C(=O)N[C@@H]2CCCN(c3cc(-c4ccc(S(C)(=O)=O)cc4)n4ncnc(N)c34)C2)sn1", "log10 IC50": 0.78}
{"COMPOUND": "CC(=O)N1CC=C(c2cc(N3CCC[C@@H](NC(=O)c4ccc(CN5CCOCC5)cc4)C3)c3c(N)ncnn23)C1", "log10 IC50": 2.60}
{"COMPOUND": "N#Cc1ccc(-c2cc(N3CCC[C@@H](NC(=O)c4sc(Cl)cc4OC4CN(CC(F)F)C4)C3)c3c(N)ncnn23)cn1", "log10 IC50": 1.40}
{"COMPOUND": "Cc1cc(C(=O)N[C@@H]2CCCN(c3cc(-c4ccc(S(C)(=O)=O)cc4)n4ncnc(N)c34)C2)on1 [Example 63, TFA]", "log10 IC50": 2.02}
{"COMPOUND": "CC(=O)N1CC=C(c2cc(N3CCC[C@@H](NC(=O)c4sc5ccccc5c4OC4CCN(C(=O)OC(C)(C)C)CC4)C3)c3c(N)ncnn23)C1", "log10 IC50": 1.71}
{"COMPOUND": "Cc1nc(OCCN(C)C)c(C(=O)N[C@@H]2CCCN(c3cc(-c4ccc(=O)n(CC(C)C)c4)n4ncnc(N)c34)C2)s1", "log10 IC50": 1.67}
{"COMPOUND": "Cc1ccc(C(=O)N[C@@H]2CCCN(c3c(C#N)c(-c4ccc(S(C)(=O)=O)cc4)n4ncnc(N)c34)C2)s1", "log10 IC50": 1.48}
{"COMPOUND": "CC(=O)N1CC=C(c2cc(N3CCC[C@@H](NC(=O)c4sc(Cl)cc4OCC4CCCN4)C3)c3c(N)ncnn23)C1 (single isomer, unassigned) [Example 391D]", "log10 IC50": 0.30}
